pIC50 for assorted molecules
Target: KRAS WT (Homo sapiens, UniProt P01116+P62937)
Sequence (P01116 1-169 isoform P01116-2 limits assumed): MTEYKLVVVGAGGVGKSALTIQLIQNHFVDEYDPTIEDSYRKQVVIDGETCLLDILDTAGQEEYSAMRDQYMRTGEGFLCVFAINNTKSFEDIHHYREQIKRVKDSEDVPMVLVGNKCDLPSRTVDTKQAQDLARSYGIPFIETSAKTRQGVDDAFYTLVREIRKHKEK
Sequence (P62937 whole entry): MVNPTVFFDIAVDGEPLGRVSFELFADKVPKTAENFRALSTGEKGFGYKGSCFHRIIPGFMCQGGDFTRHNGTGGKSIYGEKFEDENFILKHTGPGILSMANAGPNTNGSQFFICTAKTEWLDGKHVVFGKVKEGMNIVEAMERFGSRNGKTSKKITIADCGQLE
Experiment: Disruption of BRAF RBD interaction with Ras (FRET / MOA assay, with Cyclophilin A)
Type: biochemical
Conditions: KRAS WT; read-out: KRAS WT FRET data IC50
pIC50: −log10 of the molar value.

Solved cases below.
- CCn1c(-c2cncnc2)c2c3cc(ccc31)-c1cc(O)cc(c1)C[C@H](NC(=O)[C@H](C(C)C)N(C)C(=O)[C@H]1CCN(C(=O)C#CCN(C)C)C1)C(=O)N1CCC[C@H](N1)C(=O)OCC(C)(C)C2: 5.00 to 6.00
- C=CC(=O)N1CCOC2(CCN(C(=O)N(C)[C@H](C(=O)N[C@H]3Cc4cccc(c4)-c4ccc5c(c4)c(c(-c4cccnc4[C@H](C)OC)n5CC(F)(F)F)CC(C)(C)COC(=O)C4CCCN(N4)C3=O)C(C)C)CC2)C1 (stereo partly shown): 6.00 to 7.00
- CCn1c(-c2cccnc2[C@H](C)OC)c2c3cc(ccc31)-c1csc(n1)C[C@H](NC(=O)[C@H](C1CCCC1)N(C)C(C)=O)C(=O)N1CCC[C@H](N1)C(=O)OCC(C)(C)C2: 5.00 to 6.00
- CCn1c(-c2cccnc2[C@H](C)OC)c2c3cc(ccc31)-c1csc(n1)C[C@H](NC(=O)[C@H](C(C)C)N(C)C(=O)N1CC3(CC(N(C)CCOC)C3)C1)C(=O)N1CCC[C@H](N1)C(=O)OCC(C)(C)C2 (atropisomer, axis not shown): 6.00 to 7.00
- CCn1c(-c2cccnc2[C@H](C)OC)c2c3cc(ccc31)-c1cc(O)cc(c1)C[C@H](NC(=O)[C@H](C(C)C)N(C)C(=O)[C@@H]1OCC[C@@H]1c1cccnc1)C(=O)N1CCC[C@H](N1)C(=O)OCC(C)(C)C2 (atropisomer, axis not shown): 7.00 to 8.00
- C=CC(=O)N1CCO[C@H]2CN(C(=O)N(C)[C@H](C(=O)N[C@H]3Cc4cccc(c4)-c4ccc5c(c4)c(c(-c4cccnc4[C@H](C)OC)n5CC)CC(C)(C)COC(=O)C4CCCN(N4)C3=O)C(C)C)C[C@H]21 (stereo partly shown): 6.00 to 7.00
- CCn1c(-c2cccnc2[C@H](C)OC)c2c3cc(ccc31)-c1cc(O)cc(c1)C[C@H](NC(=O)[C@H](C(C)C)N(C)C(=O)Cc1cc[nH]n1)C(=O)N1CCC[C@H](N1)C(=O)OCC(C)(C)C2: 7.00 to 8.00
- CCn1c(-c2cccnc2[C@H](C)OC)c2c3cc(ccc31)-c1csc(n1)C[C@H](NC(=O)[C@H](C(C)C)N(C)C(=O)N(C)C(C)C)C(=O)N1CCC[C@H](N1)C(=O)OCC(C)(C)C2: 6.00 to 7.00
- CCn1c(-c2cccnc2[C@H](C)OC)c2c3cc(ccc31)-c1csc(n1)C[C@H](NC(=O)[C@H](C(C)C)N(C)C(=O)N1CCCC[C@@H](N(C)C)C1)C(=O)N1CCC[C@H](N1)C(=O)OCC(C)(C)C2: 6.00 to 7.00

Okay, now this molecule:
Checklist item: pIC50 tested on KRAS WT (Homo sapiens, UniProt P01116+P62937), entry CCn1c(-c2cnccc2COC)c2c3cc(ccc31)-c1cc(O)cc(c1)C[C@H](NC(=O)[C@H](C(C)C)N(C)C(=O)[C@H]1CCN(C(=O)C3COC3)C1)C(=O)N1CCC[C@H](N1)C(=O)OCC(C)(C)C2 , value?
6.00 to 7.00
